assay: Displacement of [3H]CCK8 from guinea pig brain CCK2 receptor by liquid scintillation counting; design: species or system Cavia porcellus
Each record here notes measured pKi.
When you answer, write just the number.

Worked examples, 5 compounds total:
{"COMPOUND": "O=C(Nc1ccccc1)NC1C(=O)N(CCN2CCOCC2)c2ccccc2N(CC2CCCCC2)C1=O (racemic)", "pKi": 8.56}
{"COMPOUND": "O=C(Nc1ccccc1)NC1C(=O)N(CCN2CCOCC2)c2cc(F)ccc2N(CC23CC4CC(CC(C4)C2)C3)C1=O (racemic)", "pKi": 8.36}
{"COMPOUND": "Cc1cccc(NC(=O)NC2C(=O)N(CCC(C)C)c3ccccc3N(CCN3CCOCC3)C2=O)c1 (racemic)", "pKi": 9.11}
{"COMPOUND": "CC(C)CCN1C(=O)C(NC(=O)Nc2ccccc2)C(=O)N(CCN2CCOCC2)c2ccccc21 (racemic)", "pKi": 8.54}
{"COMPOUND": "O=C(Nc1ccccc1)NC1C(=O)N(CCN2CCOCC2)c2ccccc2N(CC23CC4CC(CC(C4)C2)C3)C1=O (single isomer, unassigned; (-))", "pKi": 9.64}

Please look at the following compound next.
Annotate the compound CC(C)CCN1C(=O)C(NC(=O)Nc2ccc(C(F)(F)F)cc2)C(=O)N(CCN2CCOCC2)c2ccccc21 (racemic) with its measured pKi.
8.44

###

biological target: Cholecystokinin receptor type A (Rattus norvegicus)
Sequence (P30551 whole entry): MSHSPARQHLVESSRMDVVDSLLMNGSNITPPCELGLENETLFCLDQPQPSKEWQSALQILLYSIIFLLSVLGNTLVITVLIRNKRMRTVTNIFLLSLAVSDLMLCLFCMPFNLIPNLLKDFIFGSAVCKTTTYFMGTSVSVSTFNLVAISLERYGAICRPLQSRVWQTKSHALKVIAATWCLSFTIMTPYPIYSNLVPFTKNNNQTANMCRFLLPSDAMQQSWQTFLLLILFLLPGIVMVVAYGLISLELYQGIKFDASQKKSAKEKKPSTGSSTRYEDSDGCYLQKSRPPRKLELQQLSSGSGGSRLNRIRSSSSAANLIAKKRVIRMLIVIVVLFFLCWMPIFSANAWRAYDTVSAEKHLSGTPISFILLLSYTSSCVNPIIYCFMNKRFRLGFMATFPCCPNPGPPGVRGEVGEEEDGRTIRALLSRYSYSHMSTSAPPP
Measured Ki of individual entries
Dear colleague, please return just the value in µM, with no unit written.

Examples with answers:
{"COMPOUND": "COc1ccc(NC(=O)NC2C(=O)N(CCC(C)C)c3ccccc3N(CCN(C)C)C2=O)cc1 (racemic)", "Ki, µM": 17.4}
{"COMPOUND": "Cc1cccc(NC(=O)NC2C(=O)N(CCC(C)C)c3ccccc3N(CCN3CCOCC3)C2=O)c1 (racemic)", "Ki, µM": 0.275}
{"COMPOUND": "CC(C)CCN1C(=O)C(NC(=O)Nc2ccc(O)cc2)C(=O)N(CCN2CCOCC2)c2ccccc21 (racemic)", "Ki, µM": 8.32}

The record that follows has no Ki shown yet.
Recall the reported Ki of O=C(Nc1ccccc1)NC1C(=O)N(CCN2CCOCC2)c2cc(F)ccc2N(CC23CC4CC(CC(C4)C2)C3)C1=O (racemic) when tested on Cholecystokinin receptor type A (Rattus norvegicus).
2.63

###

assay: Displacement of [3H]CCK8 from guinea pig brain CCK2 receptor by liquid scintillation counting; set-up: species or system Cavia porcellus
Label rule, in plain words: pKi of 8 and up is label 1, under 8 is label 0.

Consider the worked cases shown below.
{"COMPOUND": "Cc1cccc(NC(=O)NC2C(=O)N(CCN3CCOCC3)c3ccccc3N(CC3CCCCC3)C2=O)c1 (racemic)", "QUALITATIVE_LABEL": "label 1"}
{"COMPOUND": "CN(C)CCCN1C(=O)C(NC(=O)Nc2ccccc2)C(=O)N(CC23CC4CC(CC(C4)C2)C3)c2ccccc21 (racemic)", "QUALITATIVE_LABEL": "label 1"}
{"COMPOUND": "CCN(CC)CCN1C(=O)C(NC(=O)Nc2ccccc2)C(=O)N(CCC(C)C)c2ccccc21 (racemic)", "QUALITATIVE_LABEL": "label 1"}

Does pKi meet or surpass 8 for CCOc1ccc(NC(=O)NC2C(=O)N(CCC(C)C)c3ccccc3N(CCN3CCOCC3)C2=O)cc1 (racemic) ?
label 0

pKi >= 8 for CCN(CC)CCN1C(=O)C(NC(=O)Nc2ccc(F)cc2)C(=O)N(CC23CC4CC(CC(C4)C2)C3)c2ccccc21 (racemic) ?
label 1

Threshold query (pKi >= 8) on O=C(Nc1ccccc1)NC1C(=O)N(CCN2CCOCC2)c2ccccc2N(CC23CC4CC(CC(C4)C2)C3)C1=O (racemic)
label 1

Would you say O=C(Nc1ccc(F)cc1)NC1C(=O)N(CCN2CCOCC2)c2ccccc2N(CC23CC4CC(CC(C4)C2)C3)C1=O (single isomer, unassigned; (-)) shows pKi at minimum 8?
label 1

Record O=C(Nc1ccccc1)NC1C(=O)N(CCN2CCOCC2)c2cc(F)ccc2N(CC23CC4CC(CC(C4)C2)C3)C1=O (single isomer, unassigned; (-)) ; criterion: pKi no lower than 8. Met?
label 1

Does pKi meet or surpass 8 for O=C(Nc1ccccc1)NC1C(=O)N(CCN2CCCC2)c2ccccc2N(CC23CC4CC(CC(C4)C2)C3)C1=O (racemic) ?
label 1

In plain terms: is recorded pKi at least 8 for CC(C)CCN1C(=O)C(NC(=O)Nc2ccc(F)cc2)C(=O)N(CCN2CCOCC2)c2ccccc21 (racemic) ?
label 1

Record CC(C)CCN1C(=O)C(NC(=O)Nc2ccc(Br)cc2)C(=O)N(CCN2CCOCC2)c2ccccc21 (racemic) ; criterion: pKi no lower than 8. Met?
label 1

// inclusive: pKi at least 8? input: Cc1cccc(Cl)c1NC(=O)NC1C(=O)N(CCC(C)C)c2ccccc2N(CCN2CCOCC2)C1=O (racemic)
label 0
